system name: hGLP-1R (Homo sapiens, UniProt P43220)
Sequence (P43220 24-463): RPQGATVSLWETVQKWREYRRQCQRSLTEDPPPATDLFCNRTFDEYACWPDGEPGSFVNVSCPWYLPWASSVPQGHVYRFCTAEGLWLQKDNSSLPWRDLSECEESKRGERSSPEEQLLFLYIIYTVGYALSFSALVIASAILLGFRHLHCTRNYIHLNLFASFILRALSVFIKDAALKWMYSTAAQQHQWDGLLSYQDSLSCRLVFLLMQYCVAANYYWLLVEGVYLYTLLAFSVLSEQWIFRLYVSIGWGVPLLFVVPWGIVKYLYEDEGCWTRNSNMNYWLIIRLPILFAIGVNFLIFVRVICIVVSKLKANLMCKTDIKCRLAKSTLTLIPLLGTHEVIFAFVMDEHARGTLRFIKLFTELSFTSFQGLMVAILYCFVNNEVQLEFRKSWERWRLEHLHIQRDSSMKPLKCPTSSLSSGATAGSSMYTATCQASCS
assay procedure: Functional cAMP activation in the presence of 0.1% casein (no HSA);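 also: intracellular cAMP rise after 30 min at 37 °C read by HTRF, normalized between buffer only (0%) and maximal control ligand (100%), four-parameter variable-slope fit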
Format: cell-based
measurement conditions: in the presence of 0.1% casein (no HSA); geometric mean; read-out: Relative cAMP EC50, hGLP-1R
pEC50: −log10 of the molar value. Starred links: 1 amine or outer side, 2 acyl side, 3 side chain; linkers in the order of their positions; H or OH if unused. Non-standard residues stand in square brackets, D forms with d. Groups on a side chain read outwards from the residue. No end group written: not given here. *: point of attachment. C20 diacid = O=C(O)CCCCCCCCCCCCCCCCCCC(=O)*; C18 diacid = O=C(O)CCCCCCCCCCCCCCCCC(=O)*; αMePhe(2-F) = C[C@](N)(Cc1ccccc1F)C(=O)O; γGlu = O=C(O)[C@H](CCC(=O)[*:2])N[*:1]; αMe4Pal = C[C@](N)(Cc1ccncc1)C(=O)O; αMeY = C[C@](N)(Cc1ccc(O)cc1)C(=O)O; 4Pal = N[C@@H](Cc1ccncc1)C(=O)O; αMeL = CC(C)C[C@](C)(N)C(=O)O; αMeS = C[C@](N)(CO)C(=O)O; Orn = NCCC[C@H](N)C(=O)O; AEEA = NCCOCCOCC(=O)O; Aib = CC(C)(N)C(=O)O
Measured pEC50 values are reported for all entries that follow.
measured attribute: pEC50

• H-Y[Aib]QGTFTSD[4Pal]SQ[αMeL]LDKK([AEEA-γGlu-γGlu-C18 diacid])AQ[αMe4Pal]AFIEYLIAGGPSSGEPPPSGS-NH2 [Example 947] = 8.77
• H-Y[Aib]QGTFTSD[4Pal]S[Orn][αMeL]LD[Orn]K([γGlu-γGlu-C18 diacid])AQ[αMe4Pal]EFIEYLLAGGPSSGAPPPSGSEE-NH2 [Example 1003] = 7.37
• Y[Aib]QGTFTSDFS[Orn][αMeL]LDKK([AEEA-AEEA-γGlu-C18 diacid])AQ[Aib]AFIEYLLE[dA]GPSSG[4Pal]PPPSGS-NH2 [Example 254] = 8.51
• H-Y[Aib]QGTFTSD[4Pal]S[Orn][αMeL]LD[Orn]K([γGlu-γGlu-C18 diacid])AQ[αMe4Pal]EFIE[αMeY]LIEGGPSSGAPPPSGSEE-NH2 [Example 973] = 8.21
• H-Y[Aib]QGTFTSDFSK[αMeL]LDKK([AEEA-γGlu-C20 diacid])AQ[Aib]AFIEYLLAGGPSSGEPPPSGE[AEEA]-NH2 [Example 33] = 8.77
• H-Y[Aib]QGTFTSDFS[Orn][αMeL]LDKK([AEEA-γGlu-C18 diacid])AQ[Aib]AFIEWLLEGGSSSGAPPPSGT-NH2 [Example 174] = 8.63
• Y[Aib]QGTFTSD[4Pal]SQ[αMeL]LDKK([AEEA-γGlu-C18 diacid])AQ[Aib]AFIEYLLE[dA]GPSSGAPPPSGS-NH2 [Example 820] = 8.56
• H-Y[Aib]QGTFTSD[4Pal]S[Orn][αMeL]LDKK([AEEA-γGlu-C18 diacid])AQ[αMe4Pal]AFIE[αMe4Pal]LIEGGPSSGAPPPSGSEE-NH2 [Example 955] = 8.11
• H-Y[Aib]QGT[αMePhe(2-F)]TSDYSILLDKQAAK([AEEA-AEEA-γGlu-C20 diacid])EFIEYLIEGGPSSGEPPPSEG-NH2 [Example 348] = 9.46
• H-Y[Aib]QGTFTSDFS[Orn][αMeL]LDKK([AEEA-γGlu-C20 diacid])AQ[Aib]AFIEYLLAGGTSSGEPPPSGE-NH2 [Example 106] = 8.40
• H-Y[Aib]QGTFTSD[4Pal][αMeS]Q[αMeL]LD[Orn]K([dE-γGlu-C18 diacid])AQ[αMe4Pal]QFIQ[αMeY]LIE[Aib]GPSSGAPPPSGGGE-NH2 [Example 1186] = 9.23
